The entries below are paired with their reported viability at 10 µM.
Tested on: Splenocyte
assay_overview: Immunomodulatory activity in Swiss albino mouse splenocytes assessed as cell viability at 10 uM by measuring inhibition of stimulation index incubated for 72 hrs in presence of mitogenic stimulus phytohaemagglutinin by MTT assay relative to indomethacin
Format: functional
condition_notes: read-out: Activity
// unit must come after the numeric part

Query: # query: viability at 10 µM of entry COc1cc(/C=C/C(=O)/C=C(O)/C=C/c2ccc(OC(=O)[C@@H](C)NC(=O)OCc3ccccc3)c(OC)c2)ccc1OC(=O)[C@@H](C)NC(=O)OCc1ccccc1
Result: 76%

Query: Entry to check: COc1cc(/C=C/C(=O)/C=C(O)/C=C/c2ccc(OC(=O)[C@@H](C)N)c(OC)c2)ccc1OC(=O)[C@@H](C)N.Cl.Cl
Result: 89.6%

Query: Entry to check: COc1cc(/C=C/C(=O)/C=C(O)/C=C/c2ccc(OC(=O)[C@@H](N)Cc3ccccc3)c(OC)c2)ccc1OC(=O)[C@@H](N)Cc1ccccc1.Cl.Cl
Result: 85.6%

---

Tested on: Rattus norvegicus
assay_overview: Anti-inflammatory activity in Wistar rat assessed as inhibition of carrageenan-induced paw edema at 10 mg/kg, ip pretreated for 1 hr followed by carrageenan challenge and measured after 3 hr relative to control (reference value: 0.00 +/-0.1 %)
Assay type: functional
condition_notes: time 4 hrs
Mark No for inhibition in vivo at 10 mg/kg values under 50%, and Yes for everything at or above.

These solved cases illustrate the format of a correct answer.
compound=COc1cc(/C=C/C(=O)/C=C(O)/C=C/c2ccc(OC(=O)[C@H](C)N)c(OC)c2)ccc1OC(=O)[C@H](C)N.Cl.Cl class_assignment=Yes
compound=COc1cc(/C=C/C(=O)/C=C(O)/C=C/c2ccc(OC(=O)CNC(=O)OCc3ccccc3)c(OC)c2)ccc1OC(=O)CNC(=O)OCc1ccccc1 class_assignment=No
compound=COc1ccc2c(c1)c(CC(=O)O)c(C)n2C(=O)c1ccc(Cl)cc1 class_assignment=Yes
compound=COc1cc(/C=C/C(=O)/C=C(O)/C=C/c2ccc(OC(=O)[C@@H](CCSC)NC(=O)OC(C)(C)C)c(OC)c2)ccc1OC(=O)[C@@H](CCSC)NC(=O)OC(C)(C)C class_assignment=Yes
compound=COc1cc(/C=C/C(=O)/C=C(O)/C=C/c2ccc(OC(=O)CNC(=O)OCC3c4ccccc4-c4ccccc43)c(OC)c2)ccc1OC(=O)CNC(=O)OCC1c2ccccc2-c2ccccc21 class_assignment=Yes

Query: Please tell me: is the compound COc1cc(/C=C/C(=O)/C=C(O)/C=C/c2ccc(OC(=O)CN)c(OC)c2)ccc1OC(=O)CN.Cl.Cl at or over 50% in terms of inhibition in vivo at 10 mg/kg?
Result: Yes

Query: Entry to check: COc1cc(/C=C/C(=O)/C=C(O)/C=C/c2ccc(OC(=O)C(C)NC(=O)OC(C)(C)C)c(OC)c2)ccc1OC(=O)C(C)NC(=O)OC(C)(C)C (centres undefined)
Result: No

Query: Entry to check: COc1cc(/C=C/C(=O)/C=C(O)/C=C/c2ccc(OC(=O)[C@@H](N)C(C)C)c(OC)c2)ccc1OC(=O)[C@@H](N)C(C)C.Cl.Cl
Result: No

Query: Entry to check: COc1cc(/C=C/C(=O)/C=C(O)/C=C/c2ccc(OC(=O)[C@H](N)CCSC)c(OC)c2)ccc1OC(=O)[C@H](N)CCSC.Cl.Cl
Result: Yes

---

System: Mus musculus
assay_overview: Analgesic activity in albino mouse assessed as forepaw licking/jumping latency time at 10 mg/kg, ip measured after 30 mins by hot plate test (reference value: 5.02 +/- 0.09 sec)
Type: functional
condition_notes: 0.5 h
The entries below are paired with their reported Time.
Entry rule: numbers only, all in s.

The cases that follow already have their Time on record.
compound=COc1cc(/C=C/C(=O)/C=C(O)/C=C/c2ccc(OC(=O)CN)c(OC)c2)ccc1OC(=O)CN.Cl.Cl assay_readout=Time val=5.04
compound=COc1cc(/C=C/C(=O)/C=C(O)/C=C/c2ccc(OC(=O)CNC(=O)OCC3c4ccccc4-c4ccccc43)c(OC)c2)ccc1OC(=O)CNC(=O)OCC1c2ccccc2-c2ccccc21 assay_readout=Time val=5.96

Query: # query: Time of entry COc1cc(/C=C/C(=O)/C=C(O)/C=C/c2ccc(OC(=O)[C@@H](CCSC)NC(=O)OC(C)(C)C)c(OC)c2)ccc1OC(=O)[C@@H](CCSC)NC(=O)OC(C)(C)C
Result: 5.14

Query: Entry to check: COc1ccc2c(c1)c(CC(=O)O)c(C)n2C(=O)c1ccc(Cl)cc1
Result: 6.3

Query: Entry to check: COc1cc(/C=C/C(=O)/C=C(O)/C=C/c2ccc(OC(=O)[C@H](N)CCSC)c(OC)c2)ccc1OC(=O)[C@H](N)CCSC.Cl.Cl
Result: 5.36

Query: Entry to check: COc1cc(/C=C/C(=O)/C=C(O)/C=C/c2ccc(OC(=O)C(C)NC(=O)OCc3ccccc3)c(OC)c2)ccc1OC(=O)C(C)NC(=O)OCc1ccccc1 (stereo not drawn)
Result: 6.26

Query: Entry to check: COc1cc(/C=C/C(=O)/C=C(O)/C=C/c2ccc(OC(=O)[C@@H](N)CCSC)c(OC)c2)ccc1OC(=O)[C@@H](N)CCSC.Cl.Cl
Result: 5.28

Query: Entry to check: COc1cc(/C=C/C(=O)/C=C(O)/C=C/c2ccc(OC(=O)[C@H](CCSC)NC(=O)OC(C)(C)C)c(OC)c2)ccc1OC(=O)[C@H](CCSC)NC(=O)OC(C)(C)C
Result: 5.74

Query: Entry to check: COc1cc(/C=C/C(=O)/C=C(O)/C=C/c2ccc(OC(=O)[C@@H](C)NC(=O)OCc3ccccc3)c(OC)c2)ccc1OC(=O)[C@@H](C)NC(=O)OCc1ccccc1
Result: 5.6

Query: Entry to check: CC(C)Cc1ccc(C(C)C(=O)O)cc1 (stereo not drawn)
Result: 5.4

---

Test system: Rattus norvegicus
assay_overview: Antiinflammatory activity in Wistar rat model of carrageenan-induced paw edema assessed as reduction in thickness of paw edema at 10 mg/kg, ip pretreated for 1 hr followed by carrageenan challenge and measured after 2 hrs (reference value: 2.06 +/-0.09 mm)
Format: functional
condition_notes: time 3 hrs
Mark false for Activity values under 1 mm, and true for everything at or above.

These solved cases illustrate the format of a correct answer.
structure_smiles=COc1cc(/C=C/C(=O)/C=C(O)/C=C/c2ccc(OC(=O)CCN)c(OC)c2)ccc1OC(=O)CCN.Cl.Cl class_assignment=false
structure_smiles=COc1cc(/C=C/C(=O)/C=C(O)/C=C/c2ccc(OC(=O)[C@@H](N)C(C)C)c(OC)c2)ccc1OC(=O)[C@@H](N)C(C)C.Cl.Cl class_assignment=true

Query: Please tell me: is the molecule COc1cc(/C=C/C(=O)/C=C(O)/C=C/c2ccc(OC(=O)[C@H](C)NC(=O)OCc3ccccc3)c(OC)c2)ccc1OC(=O)[C@H](C)NC(=O)OCc1ccccc1 at or over 1 mm in terms of Activity?
Result: true

Query: Entry to check: COc1cc(/C=C/C(=O)/C=C(O)/C=C/c2ccc(OC(=O)CNC(=O)OC(C)(C)C)c(OC)c2)ccc1OC(=O)CNC(=O)OC(C)(C)C
Result: true

Query: Entry to check: COc1cc(/C=C/C(=O)/C=C(O)/C=C/c2ccc(OC(=O)[C@@H](N)CCSC)c(OC)c2)ccc1OC(=O)[C@@H](N)CCSC.Cl.Cl
Result: false

---

Tested on: Rattus norvegicus
assay_overview: Antiinflammatory activity in Wistar rat model of carrageenan-induced paw edema assessed as reduction in thickness of paw edema at 10 mg/kg, ip pretreated for 1 hr followed by carrageenan challenge and measured after 4 hrs (reference value: 1.40 +/-0.10 mm)
Assay type: functional
condition_notes: time 5 hrs
The entries below are paired with their reported Activity.
Entry rule: numbers only, all in mm.

compound=COc1cc(/C=C/C(=O)/C=C(O)/C=C/c2ccc(OC(=O)[C@H](CCC(N)=O)NC(=O)OCc3ccccc3)c(OC)c2)ccc1OC(=O)[C@H](CCC(N)=O)NC(=O)OCc1ccccc1 target_under_test="Rattus norvegicus" val=0.78
compound="COc1ccc2c(c1)c(CC(=O)O)c(C)n2C(=O)c1ccc(Cl)cc1 [INDOMETHACIN]" target_under_test="Rattus norvegicus" val=0.18
compound=COc1cc(/C=C/C(=O)/C=C(O)/C=C/c2ccc(OC(=O)CNC(=O)OCc3ccccc3)c(OC)c2)ccc1OC(=O)CNC(=O)OCc1ccccc1 target_under_test="Rattus norvegicus" val=0.92

Could you now look at the following compound, please?
Query: # query: Activity of entry COc1cc(/C=C/C(=O)/C=C(O)/C=C/c2ccc(OC(=O)[C@H](CCSC)NC(=O)OC(C)(C)C)c(OC)c2)ccc1OC(=O)[C@H](CCSC)NC(=O)OC(C)(C)C
Result: 0.17

---

assay_overview: Ulcerogenic activity in fasted albino mouse assessed as average severity of ulcers in gastric mucosa at 10 mg/kg, po for 3 days (reference value: 0)
Format: toxicity, organism-based
condition_notes: in vivo, 72 h, time 3 day
The entries below are paired with their reported Activity.
Give your answer as a number; write no unit.

The cases that follow already have their Activity on record.
compound=COc1cc(/C=C/C(=O)/C=C(O)/C=C/c2ccc(OC(=O)[C@@H](CCSC)NC(=O)OCc3ccccc3)c(OC)c2)ccc1OC(=O)[C@@H](CCSC)NC(=O)OCc1ccccc1 assay_readout=Activity val=0
compound=COc1cc(/C=C/C(=O)/C=C(O)/C=C/c2ccc(OC(=O)[C@H](CCSC)NC(=O)OCc3ccccc3)c(OC)c2)ccc1OC(=O)[C@H](CCSC)NC(=O)OCc1ccccc1 assay_readout=Activity val=0.33
compound=COc1cc(/C=C/C(=O)/C=C(O)/C=C/c2ccc(OC(=O)[C@H](N)CCSC)c(OC)c2)ccc1OC(=O)[C@H](N)CCSC.Cl.Cl assay_readout=Activity val=0

Could you now look at the following compound, please?
Query: # query: Activity of entry CC(C)Cc1ccc(C(C)C(=O)O)cc1 (centres undefined)
Result: 0.67
